The reported numbers originate from ChEMBL document CHEMBL4334481.

molecular target: Translocator protein (Homo sapiens); assay: Displacement of [3H]PK11195 from human TSPO A147T mutant expressed in HEK293 cells after 90 mins by scintillation counting method; type: cell-based
assay_endpoint: Ki

Any idea what Ki was measured for COc1ccc(-c2ccc3c(c2)c2ccccc2n3CC(=O)N(C)Cc2cccc(OC)c2)cc1 ? 23.2 nM

Any idea what Ki was measured for CCN(Cc1cccc(OC)c1)C(=O)Cn1c2ccccc2c2ccccc21 ? 277 nM

* * *

target: UniProt P30536; experiment: Binding affinity to wild-type human TSPO expressed in HEK293 cells assessed as inhibition of cell viability at 100 uM incubated for 48 hrs by CellTiter Blue assay relative to control; assay type: cell-based
Activity calls are given as the source filed them. No cut-off for these calls is given here.
assay_endpoint: inhibition

Solved entries (count: 8):
[
  {
    "smiles_text": "COc1cccc(CN(C)C(=O)Cn2c3ccccc3c3cc(-c4ccccc4Cl)ccc32)c1",
    "recorded_value": "inactive"
  },
  {
    "smiles_text": "CCN(Cc1cccc(OC)c1)C(=O)Cn1c2ccccc2c2cc(-c3ccccc3)ccc21",
    "recorded_value": "inactive"
  },
  {
    "smiles_text": "CCN(Cc1cccc(OC)c1)C(=O)Cn1c2ccccc2c2cc(Br)ccc21",
    "recorded_value": "inactive"
  },
  {
    "smiles_text": "CN(Cc1ccccc1)C(=O)Cn1c2ccccc2c2ccccc21",
    "recorded_value": "inactive"
  },
  {
    "smiles_text": "COc1ccc(-c2ccc3c(c2)c2ccccc2n3CC(=O)N(C)Cc2cccc(OC)c2)cc1",
    "recorded_value": "inactive"
  },
  {
    "smiles_text": "CCN(Cc1ccccc1)C(=O)Cn1c2ccccc2c2ccccc21",
    "recorded_value": "inactive"
  },
  {
    "smiles_text": "COc1cccc(CN(C)C(=O)Cn2c3ccccc3c3cc(-c4ccccc4)ccc32)c1",
    "recorded_value": "inactive"
  },
  {
    "smiles_text": "CCN(Cc1cccc(OC)c1)C(=O)Cn1c2ccccc2c2ccccc21",
    "recorded_value": "inactive"
  }
]

Lab note: next molecule to report on.
Any idea what inhibition was measured for CC[C@@H](C)N(C)C(=O)c1cc2ccccc2c(-c2ccccc2Cl)n1 ? 65%

* * *

tested on: Translocator protein (Homo sapiens), P30536 [UNDEFINED MUTATION]; assay: Binding affinity to human TSPO A147T mutant expressed in HEK293 cells assessed as inhibition of cell proliferation at 100 uM incubated for 48 hrs by Brdu incorporation-based ELISA relative to control
Sequence (P30536 whole entry, looked up, stated change not applied): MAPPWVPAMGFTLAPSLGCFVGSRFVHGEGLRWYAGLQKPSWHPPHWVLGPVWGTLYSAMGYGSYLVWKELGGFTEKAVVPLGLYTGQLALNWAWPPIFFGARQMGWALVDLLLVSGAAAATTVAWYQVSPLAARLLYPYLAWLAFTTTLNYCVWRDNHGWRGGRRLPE
Active and inactive are the calls of the source. No cut-off for these calls is given here.
Write down the outcome that applies. Available outcomes: active, inactive

[
  {
    "smiles_text": "COc1ccc(-c2ccc3c(c2)c2ccccc2n3CC(=O)N(C)Cc2cccc(OC)c2)cc1",
    "class_assignment": "inactive"
  }
]

What was the test verdict on CCN(Cc1cccc(OC)c1)C(=O)Cn1c2ccccc2c2ccccc21 ? inactive

What was the test verdict on CCN(Cc1cccc(OC)c1)C(=O)Cn1c2ccccc2c2cc(-c3ccccc3)ccc21 ? active

What was the test verdict on CCN(Cc1ccccc1)C(=O)Cn1c2ccccc2c2ccccc21 ? inactive

What was the test verdict on CCN(Cc1cccc(OC)c1)C(=O)Cn1c2ccccc2c2cc(Br)ccc21 ? inactive

What was the test verdict on CN(Cc1ccccc1)C(=O)Cn1c2ccccc2c2ccccc21 ? inactive

What was the test verdict on COc1cccc(CN(C)C(=O)Cn2c3ccccc3c3cc(-c4ccccc4)ccc32)c1 ? inactive

* * *

molecular target: Translocator protein (Homo sapiens, UniProt P30536); test: Displacement of [3H]PK11195 from wild-type human TSPO expressed in HEK293 cell membranes after 90 mins by scintillation counting method
assay_endpoint: Ki

Solved entries (count: 5):
[
  {
    "smiles_text": "CCN(Cc1ccccc1)C(=O)Cn1c2ccccc2c2ccccc21",
    "Ki": "70 nM"
  },
  {
    "smiles_text": "CN(C)C(=O)Cn1c2ccccc2c2ccccc21",
    "Ki": "> 10000 nM"
  },
  {
    "smiles_text": "CCN(Cc1cccc(OC)c1)C(=O)Cn1c2ccccc2c2cc(-c3ccccc3)ccc21",
    "Ki": "385 nM"
  },
  {
    "smiles_text": "CCN(Cc1ccc(F)cc1)C(=O)Cn1c2ccccc2c2ccccc21",
    "Ki": "694 nM"
  },
  {
    "smiles_text": "CCN(Cc1cccc(OC)c1)C(=O)Cn1c2ccccc2c2cc(-c3ccc(OC)cc3)ccc21",
    "Ki": "447 nM"
  }
]

Any idea what Ki was measured for CCN(Cc1ccccc1NC(C)=O)C(=O)Cn1c2ccccc2c2ccccc21 ? 243 nM

Any idea what Ki was measured for COc1cccc(CN(C)C(=O)Cn2c3ccccc3c3cc(-c4ccccc4Cl)ccc32)c1 ? 231 nM

Any idea what Ki was measured for CCN(Cc1ccc(OC)cc1)C(=O)Cn1c2ccccc2c2ccccc21 ? 4740 nM

Any idea what Ki was measured for CCN(Cc1ccncc1)C(=O)Cn1c2ccccc2c2ccccc21 ? > 10000 nM

Any idea what Ki was measured for CCN(Cc1ccccc1OC)C(=O)Cn1c2ccccc2c2ccccc21 ? 1530 nM

Any idea what Ki was measured for COc1cccc(CN(C)C(=O)Cn2c3ccccc3c3cc(-c4ccccc4)ccc32)c1 ? 231 nM

Any idea what Ki was measured for O=C(Cn1c2ccccc2c2ccccc21)NCc1ccccc1 ? > 10000 nM

Any idea what Ki was measured for CCN(Cc1cccc(C(F)(F)F)c1)C(=O)Cn1c2ccccc2c2ccccc21 ? > 10000 nM

Any idea what Ki was measured for COc1cccc(CN(C)C(=O)Cn2c3ccccc3c3cc(Br)ccc32)c1 ? > 10000 nM

Any idea what Ki was measured for CCN(Cc1ccc(C(F)(F)F)cc1)C(=O)Cn1c2ccccc2c2ccccc21 ? > 10000 nM

* * *

tested on: Translocator protein (Homo sapiens), P30536 [UNDEFINED MUTATION]; assay: Binding affinity to human TSPO A147T mutant expressed in HEK293 cells assessed as inhibition of cell viability at 100 uM incubated for 48 hrs by CellTiter Blue assay relative to control; format: cell-based
Activity calls are given as the source filed them. The calls are words filed in the database; no cut-off is given here.
assay_endpoint: inhibition

[
  {
    "smiles_text": "CCN(Cc1cccc(OC)c1)C(=O)Cn1c2ccccc2c2cc(-c3ccccc3)ccc21",
    "recorded_value": "inactive"
  },
  {
    "smiles_text": "COc1cccc(CN(C)C(=O)Cn2c3ccccc3c3cc(-c4ccccc4)ccc32)c1",
    "recorded_value": "inactive"
  },
  {
    "smiles_text": "CN(Cc1ccccc1)C(=O)Cn1c2ccccc2c2ccccc21",
    "recorded_value": "inactive"
  },
  {
    "smiles_text": "CC[C@@H](C)N(C)C(=O)c1cc2ccccc2c(-c2ccccc2Cl)n1",
    "recorded_value": "68%"
  }
]

* * *

target: Translocator protein (Homo sapiens, UniProt P30536); assay: Displacement of [3H]PK11195 from wild-type human TSPO expressed in HEK293 cell membranes after 90 mins by scintillation counting method
assay_endpoint: pKi
The scale used: pKi is minus the common logarithm of the concentration in molar units.

Solved entries (count: 5):
[
  {
    "smiles_text": "CN(Cc1ccccc1)C(=O)Cn1c2ccccc2c2ccccc21",
    "pKi": 7.28
  },
  {
    "smiles_text": "COc1cccc(CN(C)C(=O)Cn2c3ccccc3c3cc(-c4cccc(Cl)c4)ccc32)c1",
    "pKi": 6.70
  },
  {
    "smiles_text": "CCN(Cc1cccc(OC)c1)C(=O)Cn1c2ccccc2c2ccccc21",
    "pKi": 7.02
  },
  {
    "smiles_text": "CCN(Cc1cccc(OC)c1)C(=O)Cn1c2ccccc2c2cc(Br)ccc21",
    "pKi": 6.33
  },
  {
    "smiles_text": "CCN(Cc1cccc(F)c1)C(=O)Cn1c2ccccc2c2ccccc21",
    "pKi": 6.25
  }
]

Any idea what pKi was measured for COc1cccc(CN(C)C(=O)Cn2c3ccccc3c3cc(-c4ccc(Cl)cc4)ccc32)c1 ? 5.45

Any idea what pKi was measured for COc1ccc(-c2ccc3c(c2)c2ccccc2n3CC(=O)N(C)Cc2cccc(OC)c2)cc1 ? 8.18

Any idea what pKi was measured for CCN(Cc1ccccc1F)C(=O)Cn1c2ccccc2c2ccccc21 ? 6.73

* * *

molecular target: UniProtKB P30536; test: Displacement of [3H]PK11195 from wild-type human TSPO expressed in HEK293 cell membranes after 90 mins by scintillation counting method
assay_endpoint: Ki

[
  {
    "smiles_text": "CCN(Cc1cccc(NC(C)=O)c1)C(=O)Cn1c2ccccc2c2ccccc21",
    "assay_endpoint": "Ki",
    "recorded_value": "> 10 µM"
  }
]

Lab note: next compound to report on.
Any idea what Ki was measured for CCN(Cc1ccccn1)C(=O)Cn1c2ccccc2c2ccccc21 ? > 10 µM

* * *

target: Translocator protein (Homo sapiens, UniProt P30536); assay: Displacement of [3H]PK11195 from wild-type human TSPO expressed in HEK293 cell membranes after 90 mins by scintillation counting method
assay_endpoint: Ki

[
  {
    "smiles_text": "CCN(Cc1ccccc1C(F)(F)F)C(=O)Cn1c2ccccc2c2ccccc21",
    "Ki": "> 10 µM"
  },
  {
    "smiles_text": "CCN(Cc1ccc(NC(C)=O)cc1)C(=O)Cn1c2ccccc2c2ccccc21",
    "Ki": "> 10 µM"
  }
]

Lab note: next compound to report on.
What Ki appears in the records for this compound with Translocator protein (Homo sapiens, UniProt P30536)? CCN(Cc1cccnc1)C(=O)Cn1c2ccccc2c2ccccc21 > 10 µM
